The following compounds are shown together with reported pIC50 values.
# SYSTEM NAME: adenosine A2A receptor (Homo sapiens (Human))
# Sequence (P29274 whole entry): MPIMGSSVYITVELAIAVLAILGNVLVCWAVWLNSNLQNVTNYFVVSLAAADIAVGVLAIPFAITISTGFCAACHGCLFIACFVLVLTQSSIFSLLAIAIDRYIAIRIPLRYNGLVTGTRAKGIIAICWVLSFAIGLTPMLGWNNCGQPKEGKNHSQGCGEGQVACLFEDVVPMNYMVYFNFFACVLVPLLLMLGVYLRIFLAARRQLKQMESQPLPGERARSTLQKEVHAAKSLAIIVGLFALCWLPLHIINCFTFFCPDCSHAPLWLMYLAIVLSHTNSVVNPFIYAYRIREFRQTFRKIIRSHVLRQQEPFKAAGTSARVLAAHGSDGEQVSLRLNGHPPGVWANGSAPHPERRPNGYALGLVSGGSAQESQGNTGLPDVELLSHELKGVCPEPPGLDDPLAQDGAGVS
# ASSAY SUMMARY: Adenosine receptor activity assay (Table 1), A2A activity
# Format: biochemical
# EXPERIMENTAL PARAMETERS: cAMP; read-out: Ave A2A cAMP IC50
pIC50: −log10 of the molar value.
OBSERVABLE: pIC50

>  <COMPOUND>
Cc1cc2nc(N[C@@H](C)c3cncc(F)c3)nc(C(=O)N3CC(NC(=O)[C@H]4CCOC4)C3)c2s1

>  <OBSERVABLE>
pIC50

>  <VALUE>
7.30 to 8.00

$$$$
>  <COMPOUND>
C[C@H](Nc1nc(C(=O)N2CC(NC(=O)c3ccncc3)C2)c2sccc2n1)c1cncc(F)c1

>  <OBSERVABLE>
pIC50

>  <VALUE>
7.00 to 7.30

$$$$
>  <COMPOUND>
C[C@H](Nc1nc(C(=O)N2CC(NC(=O)NC3CCC3)C2)c2sccc2n1)c1cncc(F)c1

>  <OBSERVABLE>
pIC50

>  <VALUE>
> 8.00

$$$$
>  <COMPOUND>
Cc1cc(C)cc(C(=O)NC2CN(C(=O)c3nc(N[C@@H](C)c4cncc(F)c4)nc4ccsc34)C2)c1

>  <OBSERVABLE>
pIC50

>  <VALUE>
7.30 to 8.00

$$$$
>  <COMPOUND>
C[C@H](Nc1nc(C(=O)N2CC(NC(=O)c3ccc(Cl)cc3)C2)c2sccc2n1)c1cncc(F)c1

>  <OBSERVABLE>
pIC50

>  <VALUE>
7.30 to 8.00

$$$$
>  <COMPOUND>
Cc1cc2nc(N[C@@H](C)c3cncc(F)c3)nc(C(=O)N3CC(NC(=O)c4ccc(C(F)(F)F)o4)C3)c2s1

>  <OBSERVABLE>
pIC50

>  <VALUE>
> 8.00

$$$$
>  <COMPOUND>
Cc1csc2c(C(=O)N3CC(NC(=O)c4cccc(Cl)c4)C3)nc(N[C@@H](C)c3cncc(F)c3)nc12

>  <OBSERVABLE>
pIC50

>  <VALUE>
7.30 to 8.00

$$$$
>  <COMPOUND>
CCC(CC)NC(=O)NC1CN(C(=O)c2nc(N[C@@H](C)c3cncc(F)c3)nc3ccsc23)C1

>  <OBSERVABLE>
pIC50

>  <VALUE>
> 8.00

$$$$
>  <COMPOUND>
C[C@H](Nc1nc(C(=O)N2CC(NC(=O)c3ccc(C(F)(F)F)o3)C2)c2sccc2n1)c1cncc(F)c1

>  <OBSERVABLE>
pIC50

>  <VALUE>
7.30 to 8.00

$$$$
>  <COMPOUND>
C[C@H](Nc1nc(C(=O)N2CC(NC(=O)C34CCC(CC3)CC4)C2)c2sccc2n1)c1cncc(F)c1

>  <OBSERVABLE>
pIC50

>  <VALUE>
> 8.00

$$$$
>  <COMPOUND>
C[C@H](Nc1nc(C(=O)N2CC[C@@H](C(=O)NOC3CCCC3)C2)c2sccc2n1)c1cncc(F)c1

>  <OBSERVABLE>
pIC50

>  <VALUE>
> 8.00

$$$$
>  <COMPOUND>
C[C@H](Nc1nc(C(=O)N2CC(NC(=O)C3(C)CC3)C2)c2sccc2n1)c1cncc(Cl)c1

>  <OBSERVABLE>
pIC50

>  <VALUE>
7.30 to 8.00

$$$$
>  <COMPOUND>
C[C@H](Nc1nc(C(=O)N2CC(NC(=O)C(C)(C)C(F)(F)F)C2)c2sccc2n1)c1cncc(F)c1

>  <OBSERVABLE>
pIC50

>  <VALUE>
> 8.00

$$$$
>  <COMPOUND>
C[C@H](Nc1nc(C(=O)N2CC(NC(=O)c3cccc(C(F)(F)F)c3)C2)c2sccc2n1)c1cncc(F)c1

>  <OBSERVABLE>
pIC50

>  <VALUE>
7.30 to 8.00

$$$$
